Target: T1, human S100B (human, UniProt P04271 1-92)
T1 sequence (looked up): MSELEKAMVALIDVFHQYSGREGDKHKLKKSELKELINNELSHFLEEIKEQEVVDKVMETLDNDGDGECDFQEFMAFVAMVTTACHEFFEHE
Test: ITC
Exercise: for every item that follows, state its recorded pKd.
Numbers only, as −log10 of the molar value.

Solved entries:
• Ac-TRTKIAWNKILS-NH2 [TRTKM6 (Ac-TRTKIAWNKILS-NH2)] = 5.89
• Ac-TRTKIDWNAILS-NH2 [TRTKM9 (Ac-TRTKIDWNAILS-NH2)] = 5.77
• Ac-TRTKADWNKILS-NH2 [TRTKM5 (Ac-TRTKADWNKILS-NH2)] = 5.92
• Ac-ARTKIDWNKILS-NH2 [TRTKM1 (Ac-ARTKIDWNKILS-NH2)] = 5.54

// next item, pKd requested
// query Looking for the measured pKd of Ac-TRTKIDWNKIAS-NH2 [TRTKM11 (Ac-TRTKIDWNKIAS-NH2)] , can you help?
// result 5.42
